Cited source for all entries: paper PMC4552634

# Test system: P. falciparum stage V gametocytes
# Design: BacTiter-Glo ATP luminescence viability of purified stage V gametocytes in 384-well plates, per cent inhibition versus DMSO
# PROTOCOL_CONDITIONS: 48 h, 5 µM; inhibitor
The whole screen tested about 13,000 compounds, of which about 3,200 (25%) showed an effect of 50% or more. This is one part of the list.
This listing pairs compounds with measured % Inhibition.
VALUE_TYPE: % Inhibition (%)

- COMPOUND: "C[C@@H](N=C(Nc1ccc(C#N)cc1O)Nc1ccccc1Cl)c1ccc(Br)cc1"
  MEASURED_VALUE: -91.02
- COMPOUND: "CCc1c(C)nc(-n2nc(C)cc2NC(=O)C(CC)c2ccccc2)[nH]c1=O (centres unmarked)"
  MEASURED_VALUE: 27.05
- COMPOUND: "N#Cc1ccc(N2CCN(Cc3cccc(-c4ccc(-c5nc6ccccc6[nH]5)cc4)c3)CC2)nc1.O=C(O)C(F)(F)F"
  MEASURED_VALUE: 5.421
- COMPOUND: "NC(=O)c1cccc(Nc2nccc(Nc3ccc(Oc4cccc5ccccc45)cc3)n2)c1"
  MEASURED_VALUE: -18.47
- COMPOUND: "CCNC(=O)Nc1ccc(N(C)c2ccnc(NC3CC3)n2)cc1"
  MEASURED_VALUE: 40.84
- COMPOUND: "CCCNC(=O)Nc1ccc(N(C)c2ccnc(NC3CC3)n2)cc1"
  MEASURED_VALUE: 12.51
- COMPOUND: "COc1ccc(-c2cc3ncnc(N4CCN(CCN5CCCC5)CC4)c3s2)cc1"
  MEASURED_VALUE: -2.838
- COMPOUND: "CC(=O)c1ccc(NC(=O)Nc2ccc(N(C)c3ccnc(NC4CC4)n3)cc2)cc1"
  MEASURED_VALUE: 82.68
